System: Rattus norvegicus
Test: Inhibition of methacholine-induced ECG changes in the anesthetized rat after intravenous administration.
Format: functional
QUANTITY: ED50

Item "CN(C)/C=N/c1ccc2c(c1)C(=O)N(CCO[N+](=O)[O-])CO2" with Rattus norvegicus - ED50?
0.0171 mg/kg

For Rattus norvegicus, provide ED50 of "COc1ccc2c(c1)C(=O)N(CCO[N+](=O)[O-])CO2" please.
0.013 mg/kg

Please provide the recorded ED50 for "O=C(NCCO[N+](=O)[O-])c1cccnc1" , tested on Rattus norvegicus.
0.047 mg/kg

Please state recorded ED50 (tested on Rattus norvegicus) of "O=C1c2ccccc2OCN1CCCO[N+](=O)[O-]"
0.001 mg/kg

Which ED50 is reported with Rattus norvegicus for this entry: "Cc1ccc2c(c1)C(=O)N(CCO[N+](=O)[O-])CO2" ?
0.00041 mg/kg

Please state recorded ED50 (tested on Rattus norvegicus) of "Cc1cccc2c1C(=O)N(CCO[N+](=O)[O-])CO2"
> 0.01 mg/kg

Look up ED50 with Rattus norvegicus for this molecule: "O=[N+]([O-])OCC(CO[N+](=O)[O-])O[N+](=O)[O-]"
0.036 mg/kg

# get_value(readout= ED50, system= Rattus norvegicus) for "COc1ccc2c(c1)OCN(CCO[N+](=O)[O-])C2=O"
> 0.01 mg/kg

ED50 of "O=C1c2ccc(C(F)(F)F)cc2OCN1CCO[N+](=O)[O-]" on Rattus norvegicus?
0.082 mg/kg

* * *

Assay: Partition coefficient (logP)
Format: physicochemical
Conditions: octanol/water
Exercise: state measured logP for each of the compounds provided.
# answer = number (no unit)

Requested read-out: logP. Entry: "N#Cc1ccc2c(c1)C(=O)N(CCO[N+](=O)[O-])CO2"
1.28

Look at this compound and give its reported logP. "COc1ccc2c(c1)C(=O)N(CCO[N+](=O)[O-])CO2"
1.83

Please give the measured logP for this compound: "Cc1ccc2c(c1)OCN(CCO[N+](=O)[O-])C2=O"
2.41

Form field: reported logP of "O=C1c2cc([N+](=O)[O-])ccc2OCN1CCO[N+](=O)[O-]"
1.57

What does the record list as logP for "O=C1c2ccc(Cl)cc2OCN1CCO[N+](=O)[O-]" ?
2.56

For the compound shown here, "O=C1c2ccccc2OCN1CCO[N+](=O)[O-]" , give the reported logP.
1.85

Entry under review: "Cc1ccc2c(c1)C(=O)N(CCO[N+](=O)[O-])CO2" . Reported logP?
2.41

Could you share which logP value was measured for "O=C1c2cc(Cl)ccc2OCN1CCO[N+](=O)[O-]" ?
2.56

Which logP is listed for "O=C1c2ccc(C(F)(F)F)cc2OCN1CCO[N+](=O)[O-]" ?
2.73

Which measured logP value corresponds to "COc1ccc2c(c1)OCN(CCO[N+](=O)[O-])C2=O" ?
1.83

* * *

Organism: Oryctolagus cuniculus
Assay: Compound was tested for vasorelaxation activity in the isolated endothelium-denuded rabbit aorta
Type: functional
QUANTITY: pIC50
Note on pIC50: it is the negative log10 of concentration, concentration in mol/L.

What value of measured pIC50 is listed for "O=C1c2ccc(C(F)(F)F)cc2OCN1CCO[N+](=O)[O-]" ?
6.66

* * *

Tested on: Rattus norvegicus
Test: Concentration required to reduce mean arterial blood pressure in rat after intravenous administration.
Format: functional
Conditions: Artery
Task for the reader: assign each of the following molecules its reported ED20.

Endpoint output: ED20 of "CN(C)/C=N/c1ccc2c(c1)C(=O)N(CCO[N+](=O)[O-])CO2" . Value?
1.27 mg/kg

Which ED20 reading was recorded for the molecule O=[N+]([O-])OCC(CO[N+](=O)[O-])O[N+](=O)[O-] [NITROGLYCERIN] ?
0.0054 mg/kg

What value of ED20 has been recorded for this entry: "Cc1ccc2c(c1)C(=O)N(CCO[N+](=O)[O-])CO2"
0.037 mg/kg

I am curious: what ED20 value has been reported for "O=C1c2cc(Cl)ccc2OCN1CCO[N+](=O)[O-]" ?
0.088 mg/kg

Recorded ED20 of "Cc1ccc2c(c1)OCN(CCO[N+](=O)[O-])C2=O" , please.
0.22 mg/kg

Query: ED20; subject: O=C(NCCO[N+](=O)[O-])c1cccnc1 [NICORANDIL]
0.16 mg/kg

Fill blank: measured ED20 of the molecule "O=C1c2ccc(Cl)cc2OCN1CCO[N+](=O)[O-]" is ____.
0.79 mg/kg

Reported ED20, molecule "O=C1c2cc([N+](=O)[O-])ccc2OCN1CCO[N+](=O)[O-]" : ____
0.076 mg/kg

May I ask what ED20 has been recorded for "COc1ccc2c(c1)OCN(CCO[N+](=O)[O-])C2=O" ?
0.29 mg/kg

What does the record list as ED20 for O=C1c2ccccc2OCN1CCO[N+](=O)[O-] [SINITRODIL] ?
0.19 mg/kg

// query ED20 value for entry "N#Cc1ccc2c(c1)C(=O)N(CCO[N+](=O)[O-])CO2"
> 0.3 mg/kg

Would you mind telling me what ED20 value was observed for "Cc1cccc2c1C(=O)N(CCO[N+](=O)[O-])CO2" ?
0.3 mg/kg

# query: ED20 of entry "COc1ccc2c(c1)C(=O)N(CCO[N+](=O)[O-])CO2"
> 1 mg/kg

I would be grateful if you could share the reported ED20 for "Cc1cccc2c1OCN(CCO[N+](=O)[O-])C2=O" .
0.88 mg/kg

Find the recorded ED20 belonging to "O=C1c2ccc(C(F)(F)F)cc2OCN1CCO[N+](=O)[O-]" and report it.
> 0.3 mg/kg

What value of ED20 has been recorded for this entry: "O=C1c2ccccc2OCN1CCCCCO[N+](=O)[O-]"
0.73 mg/kg
